Fluorescence Index overview
# targetOfAssay: T1, human HLA-A*0201 (human)
# T1 construct: In the T2 assay the MHC stands on the cell surface; also called HLA-A2
# procedureText: T2 cell assay, 50 µg/ml peptide plus 5 µg/ml b2m for 18 h, flow cytometry with mAb BB7.2; (MFI with peptide - MFI without)/MFI without
Could you keep your reply to the number by itself?

Reference set (4 entries):
>  <binder>
HFLLWKLIA [I540-S, scrambled hTERT I540 peptide (HFLLWKLIA), negative control]

>  <Fluorescence Index>
0.2

$$$$
>  <binder>
ILAKFLHWL (Only the start position aa540 is printed; the end of the range follows from the length of the nonapeptide; also called hTERT I540) [hTERT peptide I540 (ILAKFLHWL)]

>  <Fluorescence Index>
3.1

$$$$
>  <binder>
RLVDDFLLV (Only the start position aa865 is printed; the end of the range follows from the length of the nonapeptide) [hTERT peptide R865 (RLVDDFLLV)]

>  <Fluorescence Index>
2.2

$$$$
>  <binder>
AHTKDGFNF (Only the start position aa98 is printed) [A98-Id idiotype peptide (AHTKDGFNF), negative control]

>  <Fluorescence Index>
0

$$$$

Problem: // returns reported Fluorescence Index for input ELLRSFFYV (Only the start position aa555 is printed; the end of the range follows from the length of the nonapeptide) [hTERT peptide E555 (ELLRSFFYV)]
Result: 2.2
